Assay: Pharmacokinetics assay in rats after intragastric administration
Assay type: in vivo
Conditions: both sexes, Sprague-Dawley, rat, plasma, po, SD rats, 5 mg/Kg, read-out: Clearance CL/F (converted)
attribute.measured: CL/F (mL/min/kg)

CC1=NN(c2ccc3c(c2)CCC3)C(=O)/C1=N\Nc1cccc(-c2cccc(C(=O)O)c2)c1O	0.817
CC1=NN(c2ccc3c(c2)CCC3)C(=O)/C1=N\Nc1cc(C)cc(-c2cccc(C(=O)O)c2)c1O	2.33
CC1=NN(c2ccc(C)c(C)c2)C(=O)/C1=N\Nc1cccc(-c2cccc(C(=O)O)c2)c1O [Eltrombopag, eltrombopag, reference compound]	3
CC1=NN(c2ccc3c(c2)CCCC3)C(=O)/C1=N\Nc1cccc(-c2ccc(C(=O)O)o2)c1O	4.67

----------
Target: human TPO receptor (Homo sapiens, UniProt P40238)
Sequence (P40238 26-635): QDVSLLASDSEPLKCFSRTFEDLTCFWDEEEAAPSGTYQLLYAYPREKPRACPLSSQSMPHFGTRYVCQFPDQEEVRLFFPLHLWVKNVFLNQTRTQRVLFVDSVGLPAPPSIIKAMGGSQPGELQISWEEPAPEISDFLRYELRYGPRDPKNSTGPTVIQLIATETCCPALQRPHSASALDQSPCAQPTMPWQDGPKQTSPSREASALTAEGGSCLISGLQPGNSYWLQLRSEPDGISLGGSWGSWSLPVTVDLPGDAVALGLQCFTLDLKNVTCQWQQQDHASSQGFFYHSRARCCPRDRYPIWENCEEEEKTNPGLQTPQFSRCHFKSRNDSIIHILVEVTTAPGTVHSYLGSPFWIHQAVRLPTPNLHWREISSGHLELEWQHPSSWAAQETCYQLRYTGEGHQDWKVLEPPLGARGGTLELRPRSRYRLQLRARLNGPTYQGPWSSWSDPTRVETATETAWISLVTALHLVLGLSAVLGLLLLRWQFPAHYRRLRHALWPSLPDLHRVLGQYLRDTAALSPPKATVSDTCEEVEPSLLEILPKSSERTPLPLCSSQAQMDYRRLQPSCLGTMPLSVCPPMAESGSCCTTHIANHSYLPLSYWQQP
Experiment: pro-proliferation effect on BAF3-TPOR cell (CCK-8)
Conditions: BAF3-TPOR cells, proliferation relative to rhTPO positive control
pEC50: −log10 of the molar value.
List of pEC50 values.
attribute.measured: pEC50

CC1=NN(c2ccc3c(c2)CCCC3)C(=O)/C1=N\Nc1cc(F)cc(-c2cccc(C(=O)O)c2)c1O [Example 4]	6.55
CC1=NN(c2ccc3c(c2)CCCC3)C(=O)/C1=N\Nc1cc(C)cc(-c2cccc(C(=O)O)c2)c1O [Example 11]	6.59
CC1=NN(c2ccc3c(c2)CCCC3)C(=O)/C1=N\Nc1cc(C)cc(-c2ccc(C(=O)O)o2)c1O [Example 50]	6.90
CC1=NN(c2ccc3c(c2)C(C)(C)CC3(C)C)C(=O)/C1=N\Nc1cccc(-c2ccc(C(=O)O)o2)c1O [Example 25]	7.22
CC1=NN(c2ccc3c(c2)CCC3)C(=O)/C1=N\Nc1cc(C)cc(-c2cccc(C(=O)O)c2)c1O [Example 29]	6.91
CC1=NN(c2ccc3c(c2)CCC3)C(=O)/C1=N\Nc1cccc(-c2coc(C(=O)O)c2)c1O [Example 31]	7.57
CC1=NN(c2ccc3c(c2)CC(C)(C)C3)C(=O)/C1=N\Nc1cccc(-c2cccc(C(=O)O)c2)c1O [Example 56]	7.22
